B1: SLC19A2 (parent)
chain: FASLRPSEPFLTPYLLGPDKNLTE

# Variants of: B1
# protocol_summary: protein stability index of a GFP-peptide fusion (GPS, HEK-293T) (PSI 1-6); higher = more stable;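 also: lentivirally expressed fusions sorted by FACS into six bins by GFP to DsRed ratio, PSI derived from sequencing read proportions per bin multiplied by bin number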
# condition_notes: c terminus: a fixed tail appended
Record Y whenever protein stability index is at 2 or higher; record N when lower.

The following variants have reported results that may help.
A2F: Y
T12R: N
P6I: Y
N21K: N
T12V: N

Query variant follows.
Hello, I need to know if S7N has measured protein stability index not below 2. Thanks!
N
